Experiment: Cytotoxicity against HEL cells assessed as alteration of cell morphology after 3 days by microscopic method
Assay type: toxicity, cell-based
Conditions: human

| molecule | MCC at 72 h |
| --- | --- |
| Cn1cc(CCN(CCc2ccc(-c3ccccc3)cc2)C(=O)c2ccccc2)c2ccccc21 | > 100 µM |
| O=c1[nH]c(=O)n([C@H]2C[C@H](O)[C@@H](CO)O2)cc1/C=C/Br [BRIVUDINE] | 250 to 300 µM |
| CCCn1cc(CN2CCCCC2)c2cc(NC(=O)c3ccccc3)ccc21 | 100 µM |
| Cn1cc(CCN(CCc2ccc(-c3ccccc3)cc2)C(=O)OC(C)(C)C)c2ccccc21 | 20 µM |
| CCCn1cc(CN2CCCCC2)c2cc(CNc3ccc(Cl)cc3)ccc21 | 20 µM |
| CCCn1cc(CN2CCCCC2)c2ccccc21 | > 100 µM |
| Cn1cc(CCNCCc2ccc(-c3ccccc3)cc2)c2ccccc21 | > 4 µM |
| c1ccc(-c2ccc(Cn3cc(CN4CCCCC4)c4ccccc43)cc2)cc1 | 20 µM |
| CC(=O)N(CCc1cn(C)c2ccccc12)c1cccc2ccccc12 | 100 µM |
| Nc1nc2c(ncn2COCCO)c(=O)[nH]1 [ACYCLOVIR] | 250 to 440 µM |
